Every entry's value here was drawn from patent US8981053B2.

SUBJECT_OF_TEST: FXYD2-gamma-a subunit (target of the phage display screening and Kd determination) (human) (UniProt P54710)
Sequence (P54710 whole entry): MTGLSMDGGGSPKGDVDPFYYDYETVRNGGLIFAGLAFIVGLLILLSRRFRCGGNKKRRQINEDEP
MEASUREMENT_NOTES: phage clone characterisation after M13 phage display screening; method not stated
METRIC_NAME: Kd (nM)

[
  {
    "BINDER": "selected M13 phage clone carrying 2 peptides (peptide) peptide 1: LPLSRHY peptide 2: NTHHTSM",
    "UNIT_OF_MEASURE": "nM",
    "TEST_VALUE": 9.3
  }
]
